Value source: patent US8815857B2

In this section, each of the compounds is paired with its reported solubility.
- assayDetails: Assessment of solubility: HT solubility in pION buffer, UV spectrophotometry
- conditionInfo: pION system solution buffer, pH 4.5, pH 4.5, aqueous buffer, kinetic from dmso stock, Solubility (pH 4.5), pH 4.5 buffer, 16-19 h incubation, 1.0% DMSO
Dear colleague, please return just the value in mg/mL, with no unit written.

Recorded results for 3 compounds are shown here.
1. CCN(C)C(=O)c1ccc(COc2ccc(C)cc2-c2csc(N3C[C@H]4CC[C@@H](C3)[C@H]4C(=O)O)n2)c(C)c1 ... 0.00013
2. Cc1ccc(OCc2ccc(CN3CCOCC3)cc2C)c(-c2csc(N3CCC(C(=O)O)CC3)n2)c1 ... 0.033
3. Cc1ccc(OCc2ccc(CN3CCOCC3)cc2C)c(-c2csc(N3CC[C@@H](C(=O)O)[C@@H](C)C3)n2)c1 (single isomer, unassigned) [Compound 50] ... 0.018

Attention now turns to another entry.
Incoming: Form field: reported solubility of Cc1ccc(OCc2ccc(CN3CCOCC3)cc2C)c(-c2csc(N3CCC(C(=O)O)CC3C(F)(F)F)n2)c1 (stereo not drawn)
Outgoing: 0.015
